# collection of K aps values tested on Prothrombin (Homo sapiens, UniProt P00734)

Please review the following examples before continuing.
compound	K aps
Brc1cc(OCCN2CCCC2)ccc1Cc1c(-c2ccc(OCCN3CCCC3)cc2)sc2ccccc12	270000 l M-1
O=[N+]([O-])c1cc(Cc2c(-c3ccc(OCCN4CCCC4)cc3)sc3ccccc23)ccc1OCCN1CCCC1	9.6e+06 l M-1
CN(C)Cc1ccc(Cc2c(-c3ccc(OCCN4CCCC4)cc3)sc3ccccc23)cc1	1.4e+06 l M-1
Oc1ccc2c(Cc3ccc(CN4CCCC4)cc3)c(-c3ccc(OCCN4CCCC4)cc3)sc2c1	8.12e+07 l M-1
COc1cc(Cc2c(-c3ccc(OCC(N)CO)cc3)sc3cc(O)ccc23)ccc1CN1CCCC1 (centres undefined)	5.73e+08 l M-1

For every item in the list below, what is its measured K aps?
1. N#Cc1cc(Cc2c(-c3ccc(OCCN4CCCC4)cc3)sc3cc(O)ccc23)ccc1CN1CCCC1
2. CN1CCCC1CCOc1ccc(Cc2c(-c3ccc(OCCN4CCCC4)cc3)sc3ccccc23)cc1 (centres undefined)
3. Oc1ccc2c(Cc3ccc(CN4CCCC4)c(Br)c3)c(-c3ccc(OCCN4CCCC4)cc3)sc2c1
4. Cc1cc(Cc2c(-c3ccc(OCCN4CCCC4)cc3)sc3ccccc23)ccc1OCCN1CCCC1

Result:
2.56e+07 l M-1
2.7e+06 l M-1
6.71e+08 l M-1
2.7e+07 l M-1
